assayExplanation: Selectivity index, ratio of CC50 for cytotoxicity against human Huh7.5 cells infected with HCVcc to EC50 for antiviral activity against HCVcc infected in human Huh7.5 cells
Format: toxicity, cell-based
measurementContext: read-out: Ratio CC50/EC50
Short version: selectivity ratio at least 600 is 1, less is -1.

compound: CC(C)OC(=O)[C@H](C)N[P@](=O)(OC[C@H]1O[C@@H](n2ccc(=O)[nH]c2=O)[C@](C)(F)[C@@H]1O)Oc1ccccc1
classification: 1
//
compound: CN(C)CCN(C)c1ccc(C#N)c(CN2CCN(C(c3ccccc3)c3ccc(Cl)cc3)CC2)c1 (stereo not given)
classification: 1
//
compound: CN(C)CCN(C)c1ccc(C#N)c(CN2CCN(c3ccc(Cl)cc3)CC2)c1
classification: -1
//
compound: CN1CCN(C(c2ccccc2)c2ccc(Cl)cc2)CC1 (stereo not given)
classification: -1

### Prompt Please check the record `CN1CCCN(c2ccc(C#N)c(CN3CCN(C(c4ccc(F)cc4)c4ccc(F)cc4)CC3)c2)CC1` and state if its selectivity ratio is at or above 600.
### Response 1

###

System: Huh-7.5
assayExplanation: Cytotoxicity against human Huh7.5 cells assessed as reduction in cell viability incubated for 96 hrs by MTT assay
Format: toxicity, cell-based
measurementContext: huh-7.5, 96 h, 96 h
readout: CC50

### Prompt Field request: CC50 | item: `CN(C)CCN(C)c1ccc(C#N)c(CN2CCN(c3ccc(Cl)cc3)CC2)c1`
### Response > 20 µM

###

assayExplanation: Cytotoxicity against human Huh7.5 cells infected with HCVcc assessed as reduction in cell viability incubated for 96 hrs by MTT assay
Type: toxicity, cell-based, Huh-7.5
# log10 CC50 at 96 h per record follows
Remember, log10 of CC50 at 96 h, in µM.

Consider the reported log10 CC50 at 96 h for these compounds:
compound: CC(C)OC(=O)[C@H](C)N[P@](=O)(OC[C@H]1O[C@@H](n2ccc(=O)[nH]c2=O)[C@](C)(F)[C@@H]1O)Oc1ccccc1
log10 CC50 at 96 h: 2.23
--
compound: CN1CCCN(c2ccc(C#N)c(CN3CCN(C(c4ccc(F)cc4)c4ccc(F)cc4)CC3)c2)CC1
log10 CC50 at 96 h: 0.52

### Prompt Field request: log10 CC50 at 96 h | item: CN1CCN(C(c2ccccc2)c2ccc(Cl)cc2)CC1 (stereo not given)
### Response 1.49

### Prompt Field request: log10 CC50 at 96 h | item: CN1CCCN(c2ccc(C#N)c(CN3CCN(C(c4ccccc4)c4ccc(Cl)cc4)CC3)c2)CC1 (stereo not given)
### Response 0.57

### Prompt Field request: log10 CC50 at 96 h | item: `CN(C)CCN(C)c1ccc(C#N)c(CN2CCN(c3ccc(Cl)cc3)CC2)c1`
### Response 1.27

###

# MRT per record follows
assayExplanation: MRT in Sprague-Dawley rat at 15 mg/kg, po administered as single dose measured upto 24 hrs by LC-MS/MS analysis
Assay type: ADME, organism-based
measurementContext: in vivo
State just the number; it will be interpreted in h.

compound: CN1CCCN(c2ccc(C#N)c(CN3CCN(C(c4ccccc4)c4ccc(Cl)cc4)CC3)c2)CC1 (configuration not stated)
MRT [h]: 8.59

Read the next record carefully.
### Prompt Field request: MRT | item: `CN1CCCN(c2ccc(C#N)c(CN3CCN(C(c4ccc(F)cc4)c4ccc(F)cc4)CC3)c2)CC1`
### Response 9.43

###

System: Hepatitis C virus
assayExplanation: Antiviral activity against HCVcc infected in human Huh7.5 cells assessed as inhibition of viral replication
Format: functional, organism-based, Hepacivirus hominis
readout: log10(EC50) (log10 of the value in µM)
Remember, log10 of EC50, in µM.

molecule: CN(C)CCN(C)c1ccc(C#N)c(CN2CCN(c3ccc(Cl)cc3)CC2)c1
readout: log10(EC50)
recordedMeasurement: -0.59

### Prompt Field request: log10(EC50) | item: CN1CCN(C(c2ccccc2)c2ccc(Cl)cc2)CC1 (stereo not given)
### Response -1.17

### Prompt Field request: log10(EC50) | item: `CC(C)OC(=O)[C@H](C)N[P@](=O)(OC[C@H]1O[C@@H](n2ccc(=O)[nH]c2=O)[C@](C)(F)[C@@H]1O)Oc1ccccc1`
### Response -0.89

### Prompt Field request: log10(EC50) | item: `CN1CCCN(c2ccc(C#N)c(CN3CCN(C(c4ccc(F)cc4)c4ccc(F)cc4)CC3)c2)CC1`
### Response -2.54

### Prompt Field request: log10(EC50) | item: CN1CCCN(c2ccc(C#N)c(CN3CCN(C(c4ccccc4)c4ccc(Cl)cc4)CC3)c2)CC1 (stereo not given)
### Response -2.48

###

assayExplanation: Cytotoxicity against human Huh7.5 cells assessed as reduction in cell viability incubated for 96 hrs by MTT assay
Type: toxicity, cell-based, Huh-7.5
measurementContext: Huh7.5 cells
readout: log10 CC50 at 96 h (log10 of the value in µM)
Remember, log10 of CC50 at 96 h, in µM.

molecule: COCCOc1ccc(C#N)c(CN2CCN(C(c3ccc(F)cc3)c3ccc(F)cc3)CC2)c1
readout: log10 CC50 at 96 h
recordedMeasurement: 0.81

molecule: CN1CCCN(c2ccc(C(F)(F)F)c(CN3CCN(C(c4ccccc4)c4ccc(Cl)cc4)CC3)c2)CC1 (stereo not drawn)
readout: log10 CC50 at 96 h
recordedMeasurement: 0.11

molecule: CN(C)CCN(C)c1ccc(C#N)c(CN2CCN(C(c3ccccc3)c3ccc(Cl)cc3)CC2)c1 (stereo not drawn)
readout: log10 CC50 at 96 h
recordedMeasurement: 0.75

### Prompt Field request: log10 CC50 at 96 h | item: `CN(C)CCN(C)c1ccc(C#N)c(CN2CCN(Cc3ccc(F)cc3)CC2)c1`
### Response 1.72

### Prompt Field request: log10 CC50 at 96 h | item: `CN1CCCN(c2ccc(C#N)c(CN3CCN(C(=O)c4ccc(F)cc4)CC3)c2)CC1`
### Response 1.14

### Prompt Field request: log10 CC50 at 96 h | item: CN(C)CCN(C)CCN(C)c1ccc(C#N)c(CN2CCN(C(c3ccccc3)c3ccc(Cl)cc3)CC2)c1 (stereo not drawn)
### Response 0.80

### Prompt Field request: log10 CC50 at 96 h | item: CC(c1ccccc1)N1CCN(Cc2cc(N3CCCN(C)CC3)ccc2C#N)CC1 (stereo not drawn)
### Response 1.50

### Prompt Field request: log10 CC50 at 96 h | item: CN(C)CCN(C)c1ccc(C(F)(F)F)c(CN2CCN(C(c3ccccc3)c3ccc(Cl)cc3)CC2)c1 (stereo not drawn)
### Response 0.84

###

System: Hepacivirus hominis
assayExplanation: Binding affinity to HCV E1 protein at 12.5 to 200 uM by SPR analysis
measurementContext: dose 12.5-200 µM
The source made the active and inactive calls. No cut-off for these calls is given here.
Please state which outcome applies, choosing from 1 (yes) (active), 0 (no) (inactive)

compound: CN(C)CCN(C)c1ccc(C#N)c(CN2CCN(C(c3ccc(F)cc3)c3ccc(F)cc3)CC2)c1
classification: 1 (yes)
--
compound: CN1CCCN(c2ccc(C#N)c(CN3CCN(C(c4ccc(F)cc4)c4ccc(F)cc4)CC3)c2)CC1
classification: 1 (yes)
--
compound: CC(C)OC(=O)[C@H](C)N[P@](=O)(OC[C@H]1O[C@@H](n2ccc(=O)[nH]c2=O)[C@](C)(F)[C@@H]1O)Oc1ccccc1
classification: 0 (no)
--
compound: CN(C)CCN(C)c1ccc(C#N)c(CN2CCN(c3ccc(Cl)cc3)CC2)c1
classification: 1 (yes)

Proceed to the following item.
### Prompt Fill in: this test's call for CN1CCCN(c2ccc(C#N)c(CN3CCN(C(c4ccccc4)c4ccc(Cl)cc4)CC3)c2)CC1 (stereo not given) is ___
### Response 1 (yes)

###

tgt: Histamine H1 receptor (Homo sapiens) (UniProt P35367)
Sequence (P35367 whole entry): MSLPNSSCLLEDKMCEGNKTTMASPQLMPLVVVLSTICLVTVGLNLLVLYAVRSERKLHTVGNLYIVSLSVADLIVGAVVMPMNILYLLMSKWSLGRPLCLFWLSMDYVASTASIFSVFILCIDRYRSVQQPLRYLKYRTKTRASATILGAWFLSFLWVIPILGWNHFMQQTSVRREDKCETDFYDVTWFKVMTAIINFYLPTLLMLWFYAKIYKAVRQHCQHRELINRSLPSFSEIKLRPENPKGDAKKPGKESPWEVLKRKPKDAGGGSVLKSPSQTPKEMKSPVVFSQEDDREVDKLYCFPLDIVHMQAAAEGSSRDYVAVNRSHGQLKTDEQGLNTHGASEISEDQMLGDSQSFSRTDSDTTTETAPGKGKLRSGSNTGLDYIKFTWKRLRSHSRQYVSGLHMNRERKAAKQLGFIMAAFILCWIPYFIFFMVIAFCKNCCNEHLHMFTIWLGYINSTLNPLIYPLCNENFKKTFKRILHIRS
assayExplanation: Antagonist activity against H1 receptor (unknown origin) expressed in HEK cells at 1 uM relative to control
Type: functional, cell-based
Calls of active or inactive are those of the source. The rule behind the calls is not given here.

compound: CN1CCCN(c2ccc(C#N)c(CN3CCN(C(c4ccccc4)c4ccc(Cl)cc4)CC3)c2)CC1 (centres undefined)
Activity: inactive
//
compound: CN(C)CCN(C)c1ccc(C#N)c(CN2CCN(c3ccc(Cl)cc3)CC2)c1
Activity: inactive
//
compound: CN(C)CCN(C)c1ccc(C#N)c(CN2CCN(C(c3ccccc3)c3ccc(Cl)cc3)CC2)c1 (centres undefined)
Activity: inactive
//
compound: CN1CCCN(c2ccc(C#N)c(CN3CCN(C(c4ccc(F)cc4)c4ccc(F)cc4)CC3)c2)CC1
Activity: inactive

###

# CC50 at 96 h per record follows
assayExplanation: Cytotoxicity against human Huh7.5 cells assessed as reduction in cell viability incubated for 96 hrs by MTT assay
Assay type: toxicity, cell-based, Huh-7.5
measurementContext: Huh7.5 cells
State just the number; it will be interpreted in µM.

### Prompt Field request: CC50 at 96 h | item: `CN1CCCN(c2ccc(C#N)c(CN3CCN(C(c4ccc(F)cc4)c4ccc(F)cc4)CC3)c2)CC1`
### Response 6.24
